Reference source for all entries: ChEMBL document CHEMBL5376000

# Test summary: Metabolic stability of the compound in human liver microsomes at 1 umol/L by HPLC-MS/MS analysis
# Type: ADME, Microsome
# Setup conditions: dose 1 µmol/L, read-out: Stability
# remaining at 1 µM per record follows
Metric: remaining at 1 µM (%)

Cc1sc2c(c1C)C(c1ccc(Cl)cc1)=N[C@@H](CC(=O)NCCN1CC3(CCC(c4ccc5c(c4)CN(C4CCC(=O)NC4=O)C5=O)CC3)C1)c1nnc(C)n1-2 (stereo partly drawn)
60
Cc1sc2c(c1C)C(c1ccc(Cl)cc1)=N[C@@H](CC(=O)NCCN1CCC(c3ccc4c(c3)CN(C3CCC(=O)NC3=O)C4=O)CC1)c1nnc(C)n1-2 (stereo partly drawn)
68
Cc1sc2c(c1C)C(c1ccc(Cl)cc1)=N[C@@H](CC(=O)NCCNc1ccc(Cc3ccc4c(c3)CN(C3CCC(=O)NC3=O)C4=O)cc1)c1nnc(C)n1-2 (stereo partly drawn)
86

* * *

# Test summary: Aqueous solubility of the compound at 125 ug/ml measured after 24 hrs at pH 6.8 by LC-UV analysis
# Format: physicochemical
# Setup conditions: aqueous medium, pH 6.8, dose 125 µg/ml
# solubility at 24 h per record follows
Metric: solubility at 24 h (µg/mL)

Cc1sc2c(c1C)C(c1ccc(Cl)cc1)=N[C@@H](CC(=O)NCCCNc1ccc(Cc3ccc4c(c3)CN(C3CCC(=O)NC3=O)C4=O)cc1)c1nnc(C)n1-2 (stereo not given in full)
4
Cc1sc2c(c1C)C(c1ccc(Cl)cc1)=N[C@@H](CC(=O)NCCNc1ccc(Cc3ccc4c(c3)CN(C3CCC(=O)NC3=O)C4=O)cc1)c1nnc(C)n1-2 (stereo not given in full)
1
Cc1sc2c(c1C)C(c1ccc(Cl)cc1)=N[C@@H](CC(=O)NCCN1CC3(CCC(c4ccc5c(c4)CN(C4CCC(=O)NC4=O)C5=O)CC3)C1)c1nnc(C)n1-2 (stereo not given in full)
101
Cc1sc2c(c1C)C(c1ccc(Cl)cc1)=N[C@@H](CC(=O)NCCN1CCC3(CCC(c4ccc5c(c4)CN(C4CCC(=O)NC4=O)C5=O)CC3)CC1)c1nnc(C)n1-2 (stereo not given in full)
161
Cc1sc2c(c1C)C(c1ccc(Cl)cc1)=N[C@@H](CC(=O)N1CCC(c3ccc4c(c3)CN(C3CCC(=O)NC3=O)C4=O)CC1)c1nnc(C)n1-2 (stereo not given in full)
26

* * *

# Test summary: Metabolic stability of the compound in rat liver microsomes at 1 umol/L by HPLC-MS/MS analysis
# Format: ADME, Microsome
# Setup conditions: dose 1 µmol/L, read-out: Stability
Metric: remaining at 1 µM

Cc1sc2c(c1C)C(c1ccc(Cl)cc1)=N[C@@H](CC(=O)NCCCCCN1CCC(c3ccc4c(c3)CN(C3CCC(=O)NC3=O)C4=O)CC1)c1nnc(C)n1-2 (some centres not stated)
< 23%
Cc1sc2c(c1C)C(c1ccc(Cl)cc1)=N[C@@H](CC(=O)NCCCNc1ccc(Cc3ccc4c(c3)CN(C3CCC(=O)NC3=O)C4=O)cc1)c1nnc(C)n1-2 (some centres not stated)
48%
Cc1sc2c(c1C)C(c1ccc(Cl)cc1)=N[C@@H](CC(=O)NCCNc1ccc(Cc3ccc4c(c3)CN(C3CCC(=O)NC3=O)C4=O)cc1)c1nnc(C)n1-2 (some centres not stated)
42%
Cc1sc2c(c1C)C(c1ccc(Cl)cc1)=N[C@@H](CC(=O)NCCCCNc1ccc(Cc3ccc4c(c3)CN(C3CCC(=O)NC3=O)C4=O)cc1)c1nnc(C)n1-2 (some centres not stated)
62%
Cc1sc2c(c1C)C(c1ccc(Cl)cc1)=N[C@@H](CC(=O)NCCN1CCC(c3ccc4c(c3)CN(C3CCC(=O)NC3=O)C4=O)CC1)c1nnc(C)n1-2 (some centres not stated)
40%
Cc1sc2c(c1C)C(c1ccc(Cl)cc1)=N[C@@H](CC(=O)NCCN1CCC3(CCC(c4ccc5c(c4)CN(C4CCC(=O)NC4=O)C5=O)CC3)CC1)c1nnc(C)n1-2 (some centres not stated)
33%
Cc1sc2c(c1C)C(c1ccc(Cl)cc1)=N[C@@H](CC(=O)N1CCC(c3ccc4c(c3)CN(C3CCC(=O)NC3=O)C4=O)CC1)c1nnc(C)n1-2 (some centres not stated)
34%
Cc1sc2c(c1C)C(c1ccc(Cl)cc1)=N[C@@H](CC(=O)NCCCCCCNc1ccc(Cc3ccc4c(c3)CN(C3CCC(=O)NC3=O)C4=O)cc1)c1nnc(C)n1-2 (some centres not stated)
66%
Cc1sc2c(c1C)C(c1ccc(Cl)cc1)=N[C@@H](CC(=O)NCCCN1CCC(c3ccc4c(c3)CN(C3CCC(=O)NC3=O)C4=O)CC1)c1nnc(C)n1-2 (some centres not stated)
< 23%
Cc1sc2c(c1C)C(c1ccc(Cl)cc1)=N[C@@H](CC(=O)NCCN1CC(N3CCC(c4ccc5c(c4)CN(C4CCC(=O)NC4=O)C5=O)CC3)C1)c1nnc(C)n1-2 (some centres not stated)
< 23%
Cc1sc2c(c1C)C(c1ccc(Cl)cc1)=N[C@@H](CC(=O)NCCCCN1CCC(c3ccc4c(c3)CN(C3CCC(=O)NC3=O)C4=O)CC1)c1nnc(C)n1-2 (some centres not stated)
< 23%
Cc1sc2c(c1C)C(c1ccc(Cl)cc1)=N[C@@H](CC(=O)Nc1ccc(Cc3ccc4c(c3)CN(C3CCC(=O)NC3=O)C4=O)cc1)c1nnc(C)n1-2 (some centres not stated)
64%

* * *

# remaining at 1 µM per record follows
# Test summary: Metabolic stability of the compound in rat liver microsomes at 1 umol/L by HPLC-MS/MS analysis
# Assay type: ADME, Microsome
# Setup conditions: dose 1 µmol/L, read-out: Stability
Metric: remaining at 1 µM

Cc1sc2c(c1C)C(c1ccc(Cl)cc1)=N[C@@H](CC(=O)NCCN1CC3(CCC(c4ccc5c(c4)CN(C4CCC(=O)NC4=O)C5=O)CC3)C1)c1nnc(C)n1-2 (stereo partly drawn)
< 23%
Cc1sc2c(c1C)C(c1ccc(Cl)cc1)=N[C@@H](CC(=O)NCCCCCNc1ccc(Cc3ccc4c(c3)CN(C3CCC(=O)NC3=O)C4=O)cc1)c1nnc(C)n1-2 (stereo partly drawn)
58%
Cc1sc2c(c1C)C(c1ccc(Cl)cc1)=N[C@@H](CC(=O)NCCCCCCN1CCC(c3ccc4c(c3)CN(C3CCC(=O)NC3=O)C4=O)CC1)c1nnc(C)n1-2 (stereo partly drawn)
< 23%

* * *

# solubility at 24 h per record follows
# Test summary: Aqueous solubility of the compound at 125 ug/ml measured after 24 hrs at pH 4.5 by LC-UV analysis
# Assay type: physicochemical
# Setup conditions: aqueous medium, pH 4.5, dose 125 µg/ml
Metric: solubility at 24 h (µg/mL)

Cc1sc2c(c1C)C(c1ccc(Cl)cc1)=N[C@@H](CC(=O)NCCCCCNc1ccc(Cc3ccc4c(c3)CN(C3CCC(=O)NC3=O)C4=O)cc1)c1nnc(C)n1-2 (stereo partly specified)
6
Cc1sc2c(c1C)C(c1ccc(Cl)cc1)=N[C@@H](CC(=O)NCCCCNc1ccc(Cc3ccc4c(c3)CN(C3CCC(=O)NC3=O)C4=O)cc1)c1nnc(C)n1-2 (stereo partly specified)
4
Cc1sc2c(c1C)C(c1ccc(Cl)cc1)=N[C@@H](CC(=O)NCCCNc1ccc(Cc3ccc4c(c3)CN(C3CCC(=O)NC3=O)C4=O)cc1)c1nnc(C)n1-2 (stereo partly specified)
14
Cc1sc2c(c1C)C(c1ccc(Cl)cc1)=N[C@@H](CC(=O)N1CCC(c3ccc4c(c3)CN(C3CCC(=O)NC3=O)C4=O)CC1)c1nnc(C)n1-2 (stereo partly specified)
36
Cc1sc2c(c1C)C(c1ccc(Cl)cc1)=N[C@@H](CC(=O)NCCCCCCNc1ccc(Cc3ccc4c(c3)CN(C3CCC(=O)NC3=O)C4=O)cc1)c1nnc(C)n1-2 (stereo partly specified)
3
Cc1sc2c(c1C)C(c1ccc(Cl)cc1)=N[C@@H](CC(=O)NCCNc1ccc(Cc3ccc4c(c3)CN(C3CCC(=O)NC3=O)C4=O)cc1)c1nnc(C)n1-2 (stereo partly specified)
3

* * *

# Test summary: Aqueous solubility of the compound at 125 ug/ml measured after 24 hrs at pH 6.8 by LC-UV analysis
# Format: physicochemical
# Setup conditions: buffer, pH 6.8, 24 h, dose 125 µg/ml
Metric: solubility

Cc1sc2c(c1C)C(c1ccc(Cl)cc1)=N[C@@H](CC(=O)NCCCCN1CCC(c3ccc4c(c3)CN(C3CCC(=O)NC3=O)C4=O)CC1)c1nnc(C)n1-2 (stereo not given in full)
> 175 µM
Cc1sc2c(c1C)C(c1ccc(Cl)cc1)=N[C@@H](CC(=O)NCCCCNc1ccc(Cc3ccc4c(c3)CN(C3CCC(=O)NC3=O)C4=O)cc1)c1nnc(C)n1-2 (stereo not given in full)
< 1 µM
Cc1sc2c(c1C)C(c1ccc(Cl)cc1)=N[C@@H](CC(=O)NCCCN1CCC(c3ccc4c(c3)CN(C3CCC(=O)NC3=O)C4=O)CC1)c1nnc(C)n1-2 (stereo not given in full)
> 175 µM
Cc1sc2c(c1C)C(c1ccc(Cl)cc1)=N[C@@H](CC(=O)Nc1ccc(Cc3ccc4c(c3)CN(C3CCC(=O)NC3=O)C4=O)cc1)c1nnc(C)n1-2 (stereo not given in full)
< 1 µM
Cc1sc2c(c1C)C(c1ccc(Cl)cc1)=N[C@@H](CC(=O)NCCCCCCN1CCC(c3ccc4c(c3)CN(C3CCC(=O)NC3=O)C4=O)CC1)c1nnc(C)n1-2 (stereo not given in full)
> 182 µM
Cc1sc2c(c1C)C(c1ccc(Cl)cc1)=N[C@@H](CC(=O)NCCCCCCNc1ccc(Cc3ccc4c(c3)CN(C3CCC(=O)NC3=O)C4=O)cc1)c1nnc(C)n1-2 (stereo not given in full)
< 1 µM
Cc1sc2c(c1C)C(c1ccc(Cl)cc1)=N[C@@H](CC(=O)NCCN1CCC(c3ccc4c(c3)CN(C3CCC(=O)NC3=O)C4=O)CC1)c1nnc(C)n1-2 (stereo not given in full)
> 162 µM
Cc1sc2c(c1C)C(c1ccc(Cl)cc1)=N[C@@H](CC(=O)NCCN1CC(N3CCC(c4ccc5c(c4)CN(C4CCC(=O)NC4=O)C5=O)CC3)C1)c1nnc(C)n1-2 (stereo not given in full)
> 174 µM
Cc1sc2c(c1C)C(c1ccc(Cl)cc1)=N[C@@H](CC(=O)NCCCCCNc1ccc(Cc3ccc4c(c3)CN(C3CCC(=O)NC3=O)C4=O)cc1)c1nnc(C)n1-2 (stereo not given in full)
< 1 µM
Cc1sc2c(c1C)C(c1ccc(Cl)cc1)=N[C@@H](CC(=O)NCCCCCN1CCC(c3ccc4c(c3)CN(C3CCC(=O)NC3=O)C4=O)CC1)c1nnc(C)n1-2 (stereo not given in full)
> 178 µM
